Experiment: log P determination by LC-MS in the acidic range
Type: physicochemical
Details: LC-MS in the acidic range
Can you tell me log P (acid) for the items I'm about to list?
Give the figure by itself; no unit, no explanation.

Prompt: Return value of log P (acid) for input `Cc1cc(C)nc(Cn2nc(NC(=O)c3ccnnc3)cc2C)n1` , no commentary.
Completion: 1.14

Prompt: Return value of log P (acid) for input `Cc1cc(NC(=O)c2cccnc2)nn1CS(=O)(=O)c1ncccn1` , no commentary.
Completion: 0.74

Prompt: Return value of log P (acid) for input `CCOC(CNC(=O)n1nc(NC(=O)c2cccnc2)cc1C)OCC` , no commentary.
Completion: 1.88

Prompt: Return value of log P (acid) for input `Cc1cc(NC(=O)c2cccnc2)nn1Cc1cc(C(=O)O)n(-c2ncccc2Cl)n1` , no commentary.
Completion: 1.18

###

Test: log P determination by LC-MS in the acidic range
Type: physicochemical
Conditions: LC-MS in the acidic range
Can you tell me log P (acid) for the items I'm about to list?
Give the figure by itself; no unit, no explanation.

Prompt: Return value of log P (acid) for input `Cc1cc(NC(=O)c2cccnc2)nn1C(=O)NCc1ccc(Cl)cc1` , no commentary.
Completion: 2.34

Prompt: Return value of log P (acid) for input `Cc1cc(NC(=O)c2cccnc2)nn1Cc1cccc(F)c1` , no commentary.
Completion: 1.9

Prompt: Return value of log P (acid) for input `Cc1cc(NC(=O)c2cccnc2)nn1C(=O)NC(C)(C)C` , no commentary.
Completion: 1.99

Prompt: Return value of log P (acid) for input `O=C(Nc1ccn(Cc2cccc(F)c2)n1)c1cccnc1` , no commentary.
Completion: 1.59

Prompt: Return value of log P (acid) for input `Cc1ccc(-n2nc(NC(=O)c3cccnc3)cc2C)cc1` , no commentary.
Completion: 2.02

Prompt: Return value of log P (acid) for input `O=C(Nc1ccn(Cc2ncc(C(F)(F)F)cc2Cl)n1)c1cccnc1` , no commentary.
Completion: 1.86

Prompt: Return value of log P (acid) for input `Cc1cc(NC(=O)c2cncc(Br)c2)nn1Cc1ccccc1` , no commentary.
Completion: 2.58

Prompt: Return value of log P (acid) for input `Cc1cc(NC(=O)c2cccnc2)nn1C(=O)NCCS(C)(=O)=O` , no commentary.
Completion: 0.97

Prompt: Return value of log P (acid) for input `Cc1cc(NC(=O)c2cccnc2)nn1Cn1nc(C)n(C)c1=O` , no commentary.
Completion: 0.72

###

Can you tell me chromatographic logP for the items I'm about to list?
Assay: log P determination by LC-MS in the acidic range
Format: physicochemical
Settings: pH 2.7, values given in the synthesis examples and NMR lists; read-out: HPLC-MS: log P
Give the figure by itself; no unit, no explanation.

Prompt: Return value of chromatographic logP for input `COC(=O)c1cc(C)n(Cc2ncccn2)n1` , no commentary.
Completion: 0.98

Prompt: Return value of chromatographic logP for input `Cc1cc(NC(=O)c2cccnc2)nn1C(=O)OC(C)(C)C` , no commentary.
Completion: 2.04

Prompt: Return value of chromatographic logP for input `Cc1cc(N(C)C(=O)c2cccnc2)nn1-c1ncccn1` , no commentary.
Completion: 1.02

Prompt: Return value of chromatographic logP for input `Cc1nn(-c2ccccn2)nc1N` , no commentary.
Completion: 0.74

Prompt: Return value of chromatographic logP for input `Cc1cn(Cc2ncccn2)nc1NC(=O)c1cccnc1` , no commentary.
Completion: 0.44
